- Assay comment: Brain and plasma drug levels after single oral dose in CD-1 mice
- Format: in vivo, mouse
- Study conditions: mouse, plasma; single 20 mg/kg PO, female CD-1 mice, 7 hrs; read-out: Drug level in plasma
Hi there, I'd appreciate the recorded concentration at 7 h for every entry that follows.
The response must be a number in ng/g with no trailing unit.

Value lookup for concentration at 7 h; key = O=C(CC1Cc2ccccc2C1)N[C@H](CN1CCCC1)[C@H](O)c1ccc2c(c1)OCCO2 [control]
9

Value lookup for concentration at 7 h; key = `O=C(CC1Cc2ccccc2C1)N[C@H](CN1CCCC1)[C@H](O)c1ccc(OC(F)(F)F)cc1`
52
